Cited source for all entries: patent US12486280B2

Quick record: pKi, CDK6 (Homo sapiens (Human)).
Entry type: numeric. Quantity: pKi, the -log10 of concentration in molar units.

Recorded results for 5 compounds are shown here.
>  <Compound>
Cc1nc2c(F)cc(-c3nc(Nc4ccc(CN5CCO[C@](C)(CCN6CCC6)C5)cn4)ncc3F)cc2n1C(C)C

>  <pKi>
8.28

$$$$
>  <Compound>
Cc1nc2c(F)cc(-c3nc(Nc4ccc(CN5CCO[C@@](C)(C[C@@H](C)O)C5)cn4)ncc3F)cc2n1C(C)C (single isomer, unassigned)

>  <pKi>
7.81

$$$$
>  <Compound>
Cc1nc2c(F)cc(-c3nc(Nc4ccc(CN5CCO[C@](C)(CCN6CCCC6)C5)cn4)ncc3F)cc2n1C(C)C

>  <pKi>
8.24

$$$$
>  <Compound>
Cc1nc2c(F)cc(-c3nc(Nc4ccc(CN5CCO[C@@]6(CCN(C)C6)C5)cn4)ncc3F)cc2n1C(C)C

>  <pKi>
8.18

$$$$
>  <Compound>
Cc1nc2c(F)cc(-c3nc(Nc4ccc(CN5CCO[C@](C)(CCNC(C)(C)C)C5)cn4)ncc3F)cc2n1C(C)C

>  <pKi>
8.37

$$$$

INPUT: Query for CDK6 (Homo sapiens (Human)): what pKi does the record show for Cc1nc2c(F)cc(-c3nc(Nc4ccc(CN5CCO[C@](C)(CCNCC(F)F)C5)cn4)ncc3F)cc2n1C(C)C ?
OUTPUT: 8.27

====

# Test system: drug-sensitive cell lines of Table 2 (EFM-19, MDA-MB-453, T-47D, ZR-75-1, NCI-H441, OVTOKO, NCI-H1838)
# Assay overview: Cell Line Growth Retardation Assay, sensitive cohort
# Assay type: cell-based, human
# Conditions: Homo sapiens, […], geometric mean over sensitive cohort; 6 days growth; read-out: AvgSensIC50
Each record here notes measured IC50.
State just the number; it will be interpreted in µM.

Some molecules with recorded IC50:
>  <Molecule>
Cc1nc2c(F)cc(-c3nc(Nc4ccc(CN5CCO[C@@](C)(C[C@H](C)N(C)C)C5)cn4)ncc3F)cc2n1C(C)C

>  <IC50 / µM>
0.12

$$$$
>  <Molecule>
COC(=O)N1CC[C@]2(CN(Cc3ccc(Nc4ncc(F)c(-c5cc(F)c6nc(C)n(C(C)C)c6c5)n4)nc3)CCO2)C1

>  <IC50 / µM>
0.11

$$$$
>  <Molecule>
CC[C@@]1(CCN(C)C)CN(Cc2ccc(Nc3ncc(F)c(-c4cc(F)c5nc(C)n(C(C)C)c5c4)n3)nc2)CCO1

>  <IC50 / µM>
0.08

$$$$
>  <Molecule>
Cc1nc2c(F)cc(-c3nc(Nc4ccc(CN5CCO[C@](C)(CCN)C5)cn4)ncc3F)cc2n1C(C)C

>  <IC50 / µM>
0.15

$$$$
>  <Molecule>
Cc1nc2c(F)cc(-c3nc(Nc4ccc(CN5CCO[C@]6(CCN(S(C)(=O)=O)C6)C5)cn4)ncc3F)cc2n1C(C)C

>  <IC50 / µM>
0.16

$$$$
>  <Molecule>
CCCC1(C)CN(Cc2ccc(Nc3ncc(F)c(-c4cc(F)c5nc(C)n(C(C)C)c5c4)n3)nc2)CCO1 (stereo not shown)

>  <IC50 / µM>
0.79

$$$$
>  <Molecule>
Cc1nc2c(F)cc(-c3nc(Nc4ccc(CN5CCO[C@@](C)(C[C@@H](C)O)C5)cn4)ncc3F)cc2n1C(C)C (single isomer, unassigned)

>  <IC50 / µM>
0.35

$$$$
>  <Molecule>
CC(=O)N1CC[C@@]2(CN(Cc3ccc(Nc4ncc(F)c(-c5cc(F)c6nc(C)n(C(C)C)c6c5)n4)nc3)CCO2)C1

>  <IC50 / µM>
0.25

$$$$

Here is another molecule to look at.
INPUT: Quick check: IC50 of Cc1nc2c(F)cc(-c3nc(Nc4ccc(CN5CCO[C@](C)(CCN(C)CC(F)F)C5)cn4)ncc3F)cc2n1C(C)C ?
OUTPUT: 0.17

====

# Assay overview: Measurement of Compound Metabolic Stability in hepatocytes
Experimental endpoint: log10 half-life at 1 μM (log10 of the value in min)
Values are log10 of half-life at 1 μM in min.

The cases that follow already have their log10 half-life at 1 μM on record.
>  <Smiles record>
COC(=O)N1CC[C@@]2(CN(Cc3ccc(Nc4ncc(F)c(-c5cc(F)c6nc(C)n(C(C)C)c6c5)n4)nc3)CCO2)C1

>  <log10 half-life at 1 μM>
0.67

$$$$
>  <Smiles record>
Cc1nc2c(F)cc(-c3nc(Nc4ccc(CN5CCNC(C)(C)C5)cn4)ncc3F)cc2n1C(C)C

>  <log10 half-life at 1 μM>
1.91

$$$$
>  <Smiles record>
Cc1nc2c(F)cc(-c3nc(Nc4ccc(CN5CCO[C@](C)(CCN6CC[C@H](F)C6)C5)cn4)ncc3F)cc2n1C(C)C

>  <log10 half-life at 1 μM>
1.03

$$$$
>  <Smiles record>
Cc1nc2c(F)cc(-c3nc(Nc4ccc(CN5CCO[C@](C)(CC(=O)N(C)C)C5)cn4)ncc3F)cc2n1C(C)C

>  <log10 half-life at 1 μM>
0.73

$$$$
>  <Smiles record>
Cc1nc2c(F)cc(-c3nc(Nc4ccc(CN5CCO[C@](C)(C[C@@H](C)N(C)C)C5)cn4)ncc3F)cc2n1C(C)C

>  <log10 half-life at 1 μM>
1.95

$$$$

INPUT: Would you kindly share the measured log10 half-life at 1 μM for CC(=O)N1CC[C@@]2(CN(Cc3ccc(Nc4ncc(F)c(-c5cc(F)c6nc(C)n(C(C)C)c6c5)n4)nc3)CCO2)C1 ?
OUTPUT: 1.49

INPUT: Could you tell me which log10 half-life at 1 μM is on file for Cc1nc2c(F)cc(-c3nc(Nc4ccc(CN5CCO[C@](C)(CCN6CCCC6)C5)cn4)ncc3F)cc2n1C(C)C ?
OUTPUT: 2.34

====

// IC50 at 10 min lookup, one value per entry
# Tested on: CYP isozymes (IC50s averaged over the isozymes)
# Assay overview: CYP Enzymatic Inhibition Assay in human liver microsomes
Answer with a number only, understood to be in µM.

INPUT: Form field: reported IC50 at 10 min of Cc1nc2c(F)cc(-c3nc(Nc4ccc(CN5CCO[C@@](C)(CCO)C5)cn4)ncc3F)cc2n1C(C)C
OUTPUT: 35

INPUT: What value of measured IC50 at 10 min is listed for Cc1nc2c(F)cc(-c3nc(Nc4ccc(CN5CCO[C@](C)(CCN6CC(F)C6)C5)cn4)ncc3F)cc2n1C(C)C ?
OUTPUT: 15.2

INPUT: Quick one: IC50 at 10 min for Cc1nc2c(F)cc(-c3nc(Nc4ccc(CN5CCO[C@](C)(CCN6CC[C@H](F)C6)C5)cn4)ncc3F)cc2n1C(C)C ?
OUTPUT: 16.9

INPUT: GET /values?readout=IC50 at 10 min&item= Cc1nc2c(F)cc(-c3nc(Nc4ccc(CN5CCO[C@](C)(CCN6CCOCC6)C5)cn4)ncc3F)cc2n1C(C)C
OUTPUT: 29

INPUT: Which IC50 at 10 min reading was recorded for the molecule Cc1nc2c(F)cc(-c3nc(Nc4ccc(CN5CCO[C@](C)(CCNCC(F)(F)F)C5)cn4)ncc3F)cc2n1C(C)C ?
OUTPUT: 26.1

INPUT: Would you kindly share the measured IC50 at 10 min for Cc1nc2c(F)cc(-c3nc(Nc4ccc(CN5CCO[C@](C)(CC(=O)N6CCCC6)C5)cn4)ncc3F)cc2n1C(C)C ?
OUTPUT: 18.1

INPUT: Could you tell me which IC50 at 10 min is on file for COC(=O)N1CC[C@]2(CN(Cc3ccc(Nc4ncc(F)c(-c5cc(F)c6nc(C)n(C(C)C)c6c5)n4)nc3)CCO2)C1 ?
OUTPUT: 30

INPUT: Given Cc1nc2c(F)cc(-c3nc(Nc4ccc(CN5CCO[C@](C)(CCN6CC(F)(F)C6)C5)cn4)ncc3F)cc2n1C(C)C , state its recorded IC50 at 10 min.
OUTPUT: 21.6

INPUT: Quick check: IC50 at 10 min of Cc1nc2c(F)cc(-c3nc(Nc4ccc(CN5CCO[C@@](C)(C[C@H](C)N(C)C)C5)cn4)ncc3F)cc2n1C(C)C ?
OUTPUT: 64.7

====

# Target: hERG potassium channels (Homo sapiens (Human))
# Sequence (Q12809 whole entry): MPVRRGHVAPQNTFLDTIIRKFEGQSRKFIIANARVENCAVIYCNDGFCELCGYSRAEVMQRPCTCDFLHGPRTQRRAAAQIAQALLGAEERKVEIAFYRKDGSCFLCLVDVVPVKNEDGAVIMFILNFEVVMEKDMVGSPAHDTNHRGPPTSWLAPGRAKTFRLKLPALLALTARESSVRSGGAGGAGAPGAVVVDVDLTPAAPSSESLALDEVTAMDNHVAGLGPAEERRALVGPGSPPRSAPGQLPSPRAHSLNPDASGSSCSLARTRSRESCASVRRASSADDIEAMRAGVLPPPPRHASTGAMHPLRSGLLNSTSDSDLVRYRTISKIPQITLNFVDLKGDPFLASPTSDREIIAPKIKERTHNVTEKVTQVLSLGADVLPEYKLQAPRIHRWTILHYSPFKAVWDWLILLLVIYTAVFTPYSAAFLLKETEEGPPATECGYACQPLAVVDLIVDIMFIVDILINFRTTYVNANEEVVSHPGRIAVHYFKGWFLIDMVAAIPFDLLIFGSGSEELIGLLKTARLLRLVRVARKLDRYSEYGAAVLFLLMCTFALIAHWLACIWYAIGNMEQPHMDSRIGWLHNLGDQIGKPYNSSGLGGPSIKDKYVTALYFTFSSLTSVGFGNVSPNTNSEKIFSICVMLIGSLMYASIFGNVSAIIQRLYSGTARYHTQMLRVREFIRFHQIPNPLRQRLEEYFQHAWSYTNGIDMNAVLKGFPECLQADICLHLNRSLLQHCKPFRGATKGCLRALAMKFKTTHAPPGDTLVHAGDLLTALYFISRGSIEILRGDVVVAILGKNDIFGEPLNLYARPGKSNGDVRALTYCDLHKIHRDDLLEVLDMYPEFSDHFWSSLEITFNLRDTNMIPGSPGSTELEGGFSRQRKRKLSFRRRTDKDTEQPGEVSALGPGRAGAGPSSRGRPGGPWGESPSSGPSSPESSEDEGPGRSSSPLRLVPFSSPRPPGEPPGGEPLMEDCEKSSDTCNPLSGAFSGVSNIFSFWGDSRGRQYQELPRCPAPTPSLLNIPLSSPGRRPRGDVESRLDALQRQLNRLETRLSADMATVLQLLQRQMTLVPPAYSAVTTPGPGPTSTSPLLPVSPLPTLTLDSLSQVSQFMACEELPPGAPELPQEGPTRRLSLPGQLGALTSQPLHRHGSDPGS
# Assay overview: hERG Inhibition Assay (QPatch automated patch clamp, CHO cells)
# Conditions: percent of control current
Property: hERG; scope: individual molecules
Answer in %, number only, no unit symbol.

Worked set:
>  <Molecule>
Cc1nc2c(F)cc(-c3nc(Nc4ccc(CN5CCO[C@](C)(CCN6CC(F)(F)C6)C5)cn4)ncc3F)cc2n1C(C)C

>  <Result units>
%

>  <hERG>
19.54

$$$$
>  <Molecule>
Cc1nc2c(F)cc(-c3nc(Nc4ccc(CN5CCO[C@@]6(CCN(C)C6)C5)cn4)ncc3F)cc2n1C(C)C

>  <Result units>
%

>  <hERG>
14.81

$$$$
>  <Molecule>
CNCC[C@@]1(C)CN(Cc2ccc(Nc3ncc(F)c(-c4cc(F)c5nc(C)n(C(C)C)c5c4)n3)nc2)CCO1

>  <Result units>
%

>  <hERG>
15.58

$$$$
>  <Molecule>
Cc1nc2c(F)cc(-c3nc(Nc4ccc(CN5CCO[C@](C)(CCN6CC(F)C6)C5)cn4)ncc3F)cc2n1C(C)C

>  <Result units>
%

>  <hERG>
23.72

$$$$
>  <Molecule>
Cc1nc2c(F)cc(-c3nc(Nc4ccc(CN5CCO[C@](C)(CCN6CC6C)C5)cn4)ncc3F)cc2n1C(C)C (stereo partly shown)

>  <Result units>
%

>  <hERG>
19.86

$$$$

INPUT: Query: hERG; subject: Cc1nc2c(F)cc(-c3nc(Nc4ccc(CN5CCO[C@](C)(CCNCC(F)(F)F)C5)cn4)ncc3F)cc2n1C(C)C
OUTPUT: 21.86

INPUT: So what's the measured hERG for this one? COC(=O)N1CC[C@]2(CN(Cc3ccc(Nc4ncc(F)c(-c5cc(F)c6nc(C)n(C(C)C)c6c5)n4)nc3)CCO2)C1
OUTPUT: 15.21
